# measurementTarget: cAMP phosphodiesterase (Bos taurus)
# assayName: Inhibition of bovine heart cAMP-phosphodiesterase
// assign rule met if IC50 falls strictly below 300 µM, else rule not met (ties count as rule not met)

{"molecule": "CCN(CC)c1nc(NCC(O)c2cc(O)cc(O)c2)nc2cc(OC)c(OC)cc12.Cl (stereo not given)", "measurementTarget": "cAMP phosphodiesterase (Bos taurus)", "cat": "rule not met"}
{"molecule": "CCN(CC)c1nc(NCCc2ccccc2)c2cc(OC)c(OC)cc2n1", "measurementTarget": "cAMP phosphodiesterase (Bos taurus)", "cat": "rule met"}
{"molecule": "CCN(CC)c1nc(NCC(O)c2ccc(O)c(CO)c2)nc2cc(OC)c(OC)cc12.Cl (stereo not given)", "measurementTarget": "cAMP phosphodiesterase (Bos taurus)", "cat": "rule not met"}

Now, please, on to the next molecule.
(Q) IC50 strictly < 300 µM for this molecule? CCN(CC)c1nc(NCC(O)c2ccccc2)nc2cc(OC)c(OC)cc12 (stereo not given)
(A) rule not met
